# measurement protocol: Protein binding in plasma (unknown origin) assessed as unbound fraction
# Type: ADME, cell-free
measured attribute: fraction unbound

Query string: Entry O=C(NO)c1ccc(CCCN2CCC(CN[C@H]3C[C@@H]3c3ccccc3)CC2)cc1 (racemic) needs its fraction unbound filled in; supply it.
Result string: 0.45

---

# system name: Protein deacetylase HDAC6 (Homo sapiens)
# Sequence (Q9UBN7 whole entry): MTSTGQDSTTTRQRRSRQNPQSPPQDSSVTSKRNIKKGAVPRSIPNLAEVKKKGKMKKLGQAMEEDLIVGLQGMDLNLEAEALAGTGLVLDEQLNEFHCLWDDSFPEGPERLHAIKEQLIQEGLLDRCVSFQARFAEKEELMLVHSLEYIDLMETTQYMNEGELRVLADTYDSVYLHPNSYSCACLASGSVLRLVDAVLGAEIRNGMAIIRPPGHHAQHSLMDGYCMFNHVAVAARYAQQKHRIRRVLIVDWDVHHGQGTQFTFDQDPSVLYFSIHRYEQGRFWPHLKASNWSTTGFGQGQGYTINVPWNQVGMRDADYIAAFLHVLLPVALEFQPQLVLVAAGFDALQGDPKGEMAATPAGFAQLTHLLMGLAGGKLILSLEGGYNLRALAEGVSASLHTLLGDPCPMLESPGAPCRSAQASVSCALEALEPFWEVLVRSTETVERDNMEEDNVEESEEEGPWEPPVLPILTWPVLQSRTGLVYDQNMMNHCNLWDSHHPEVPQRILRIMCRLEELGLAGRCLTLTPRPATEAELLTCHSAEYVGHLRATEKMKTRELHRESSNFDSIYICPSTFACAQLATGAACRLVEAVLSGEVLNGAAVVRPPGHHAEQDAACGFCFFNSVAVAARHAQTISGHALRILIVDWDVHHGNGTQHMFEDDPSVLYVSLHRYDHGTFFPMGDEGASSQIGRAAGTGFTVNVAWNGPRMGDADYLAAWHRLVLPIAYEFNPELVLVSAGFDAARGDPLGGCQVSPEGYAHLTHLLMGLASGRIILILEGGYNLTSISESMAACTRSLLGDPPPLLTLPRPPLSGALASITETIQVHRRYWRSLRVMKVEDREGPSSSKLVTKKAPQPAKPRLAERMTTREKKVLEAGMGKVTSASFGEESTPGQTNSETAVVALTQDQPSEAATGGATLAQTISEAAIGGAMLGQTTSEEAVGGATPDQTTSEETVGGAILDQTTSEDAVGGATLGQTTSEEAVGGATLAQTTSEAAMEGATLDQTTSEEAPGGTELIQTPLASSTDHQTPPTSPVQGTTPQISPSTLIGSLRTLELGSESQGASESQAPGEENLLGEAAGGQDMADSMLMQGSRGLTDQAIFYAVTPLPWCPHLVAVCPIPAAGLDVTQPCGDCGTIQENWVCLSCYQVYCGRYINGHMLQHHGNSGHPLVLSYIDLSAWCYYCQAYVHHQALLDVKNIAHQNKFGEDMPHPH
# measurement protocol: Inhibition of human HDAC6 (unknown origin) using RHKKAc as substrate by fluorescence method
# experimental setup: read-out: IC50
measured attribute: IC50

{"compound": "Cc1noc(C)c1-c1ccc([C@H]2C[C@@H]2NCC2CCN(CCCc3ccc(C(=O)NO)cc3)CC2)cc1 (racemic)", "IC50": "58 nM"}
{"compound": "O=C(NO)c1coc(CCCN2CCC(CN[C@H]3C[C@@H]3c3ccccc3)CC2)n1 (racemic)", "IC50": "> 10000 nM"}
{"compound": "COc1ccc([C@H]2C[C@@H]2NCc2cn3c(n2)CN(CCCc2ccc(C(=O)NO)cc2)CC3)cc1 (racemic)", "IC50": "28 nM"}
{"compound": "Cn1cc(-c2ccc([C@H]3C[C@@H]3NCC3CCN(CCCc4ccc(C(=O)NO)cc4)CC3)cc2)cn1 (racemic)", "IC50": "66 nM"}
{"compound": "O=C(NO)c1cnc(CCCN2CCC(CN[C@H]3C[C@@H]3c3ccccc3)CC2)s1 (racemic)", "IC50": "517 nM"}

Query string: Entry O=C(NO)c1ccc(CCCN2CC(CN[C@H]3C[C@@H]3c3ccccc3)C2)cc1 (racemic) needs its IC50 filled in; supply it.
Result string: 184 nM

Query string: Entry O=C(NO)c1csc(CCCN2CCC(CN[C@H]3C[C@@H]3c3ccccc3)CC2)n1 (racemic) needs its IC50 filled in; supply it.
Result string: > 10000 nM

Query string: Entry O=C(NO)c1ccc(CCCN2CCC(CN[C@H]3C[C@@H]3c3ccc(-c4ccc(F)cc4)cc3)CC2)cc1 (racemic) needs its IC50 filled in; supply it.
Result string: 59 nM

Query string: Entry O=C(NO)c1ccc(CCCN2CCC(CN[C@H]3C[C@@H]3c3ccc(OCc4ccc(F)cc4)cc3)CC2)cc1 (racemic) needs its IC50 filled in; supply it.
Result string: 12 nM

Query string: Entry O=C(O)c1ccc(CCCN2CCC(CN[C@H]3C[C@@H]3c3ccccc3)CC2)cc1 (racemic) needs its IC50 filled in; supply it.
Result string: > 10000 nM

Query string: Entry O=C(NO)c1ccc(CCCN2CCC(CN[C@H]3C[C@@H]3c3ccc(-c4ccc(C(F)(F)F)nc4)cc3)CC2)cc1 (racemic) needs its IC50 filled in; supply it.
Result string: 100 nM

Query string: Entry COc1ccc([C@H]2C[C@@H]2NCC2CCN(CCCc3ccc(C(=O)NO)cc3)CC2)cc1 (racemic) needs its IC50 filled in; supply it.
Result string: 38 nM

Query string: Entry CN(C)CCNC(=O)c1ccc([C@H]2C[C@@H]2NCC2CCN(CCCc3ccc(C(=O)NO)cc3)CC2)cc1 (racemic) needs its IC50 filled in; supply it.
Result string: 130 nM

Query string: Entry O=C(NO)c1ccc(CCN2CCC(CN[C@H]3C[C@@H]3c3ccccc3)CC2)cc1 (racemic) needs its IC50 filled in; supply it.
Result string: 490 nM

Query string: Entry O=C(NO)c1ccc(CCCN2CCC(CN[C@H]3C[C@@H]3c3ccc(F)cc3)CC2)cc1 (racemic) needs its IC50 filled in; supply it.
Result string: 51 nM

Query string: Entry O=C(NO)c1ccc(CCCN2CCC(CN[C@H]3C[C@@H]3c3ccc(-c4ccc(Cl)cc4)cc3)CC2)cc1 (racemic) needs its IC50 filled in; supply it.
Result string: 19 nM

Query string: Entry Cn1ccc(-c2ccc([C@H]3C[C@@H]3NCC3CCN(CCCc4ccc(C(=O)NO)cc4)CC3)cc2)cc1=O (racemic) needs its IC50 filled in; supply it.
Result string: 46 nM
